tested on: Tov112D; assay: Primary qHTS to identify gynecologic anti-cancer compounds using libraries of approved drugs and bioactive compounds (AID 1345084); conditions: Gynecologic cancer cell panel viability, ATPlite luminescence, 48 h; series mostly up to 57.5 µM; also: nearly all actives have a fitted effect of over 55% in size
Results filed as inconclusive are left out. Activity calls are given as the source filed them. Calls follow the shape of the dose curve; as a rule, active = well fitted cell-killing curve with a large enough effect; inconclusive = small, poorly fitted or top-dose-only effect, or effect the other way; inactive = flat fitted curve, though single readings scatter.
Your answer must be one of the following: active, inactive

Called result for COc1cccc(CN(C(=O)CC(C)(C)C)[C@H]2C[C@H](C(=O)N3CCNCC3)N(Cc3ccc4c(c3)OCO4)C2)c1 inactive

Called result for Cc1cc(N2CCOCC2)ccc1Nc1nc(NC2CCCCC2)c2[nH]cnc2n1 inactive

Called result for C/C=C(\C)C(=O)OC1C=C(C)CC(OC(=O)c2ccc(O)cc2)C2C1(C)CCC2(O)C(C)C (centres undefined) inactive

Called result for O=C1Nc2nc(-c3c(O)cccc3OCC3CC3)cc([C@@H]3CCCNC3)c2CO1 active

Called result for CC(O)C(C)n1ncn(-c2ccc(N3CCN(c4ccc(OCC5COC(Cn6cncn6)(c6ccc(Cl)cc6Cl)O5)cc4)CC3)cc2)c1=O (centres undefined) inactive

Called result for Cc1ccc(S(=O)(=O)N2CCC[C@H]2c2ccc(F)cc2)cc1 inactive

Called result for CC(C)C[C@@H]1NC(=O)[C@@H]2C[C@@]34C[C@@H]5[C@@]6(C)CCCC(C)(C)C6CC[C@@]5(C)N(c5ccccc53)[C@H]4N2C1=O (some centres undefined) inactive

Called result for CC[C@H](C)/C=C(C)/C=C/C1=CC2=CC(=O)[C@]3(C)OC(=O)[C@@H](C(C)=O)[C@@H]3C2=CO1 inactive

Called result for COc1ccc(NC(=O)c2ccc(-c3ccc(-c4nnc(C)o4)cc3C)cc2)cc1N1CCN(C)CC1 inactive

Called result for COC1CC(=O)C23C(=O)NC(CC(C)C)C2C(C)C(C)=CC3/C=C(\C)CCCC1O (centres undefined) inactive

Called result for Cc1cc(CS(=O)(=O)c2ccccc2)cc(OCc2ccc(CN3CCCC3CO)cc2)c1 (centres undefined) inactive

Called result for C=C1C(=O)O[C@H]2C1CCC(C)=C1C(=O)C=C(C)[C@@]12O (some centres undefined) inactive

Called result for Cc1[nH]c2ccccc2c1CCNCc1ccc(/C=C/C(=O)NO)cc1 active

Called result for C=C(C)C(=O)O[C@H]1/C(C=O)=C\CC/C(CO)=C/[C@H]2OC(=O)C(=C)[C@@H]2[C@@H]1OC inactive

Called result for CC(=O)O[C@@]12CO[C@@H]1C[C@H](O)[C@@]1(C)C(=O)[C@H](O)C3=C(C)[C@@H](OC(=O)[C@H](O)[C@@H](NC(=O)OC(C)(C)C)c4ccccc4)C[C@@](O)([C@@H](OC(=O)c4ccccc4)C12)C3(C)C (some centres undefined) inactive

Called result for CC(C)c1cc(-c2ccc(F)c3ccccc23)nc(N)n1 inactive

Called result for Cc1nc(NC(=O)N2CCC[C@H]2C(N)=O)sc1-c1ccnc(C(C)(C)C(F)(F)F)c1 inactive

Called result for CC[C@H]1CN(c2nc(N)c(C(N)=O)nc2Cl)CCN1C1CCN(Cc2ccc(Cl)cc2)CC1 inactive

Called result for Cc1[nH]c2ccc(F)cc2c1-c1nc2c3cccnc3c3ncccc3c2[nH]1 active

Called result for COc1ccc(S(=O)(=O)Nc2cc(Cl)cc(Cl)c2OC)cc1N1CCNCC1 inactive

Called result for Cn1cc(-c2ccc3c(c2)CCN3C(=O)Cc2cccc(C(F)(F)F)c2)c2c(N)ncnc21 inactive

Called result for Cc1[nH]c(/C=C2\C(=O)Nc3ccc(F)cc32)c(C)c1C(=O)NCCN1CCCC1 inactive

Called result for CC[C@@H](C)[C@@H]1OC2(C=C[C@H]1C)C[C@@H]1C[C@H](C/C=C(\C)[C@H](O[C@H]3C[C@H](OC)[C@H](O[C@H]4C[C@H](OC)[C@H](NC(C)=O)[C@H](C)O4)[C@H](C)O3)[C@H](C)/C=C/C=C3\CO[C@H]4[C@H](O)C(C)=C[C@@H](C(=O)O1)[C@@]34O)O2 (some centres undefined) inactive

Called result for CC1=C2C[C@@]3(C)C(CCC[C@@H]3C)C(O)C2OC1=O (some centres undefined) inactive
